# System: Mycobacterium tuberculosis Erdman (autoluminescent)
# METHOD_DESCRIPTION: total FIC50 (Loewe) at 50% inhibition, three-drug combination (log2); higher = more antagonistic
# RUN_CONDITIONS: in vitro model: cholesterol 0.05 mM; time point: terminal (~4-5 doublings, model-specific)
This section presents compounds with their documented total FIC50 values.

Known results for compounds:
CC[C@@H](CO)NCCN[C@@H](CC)CO [ethambutol] + CC(=O)NC[C@H]1CN(c2ccc(N3CCOCC3)c(F)c2)C(=O)O1 [linezolid] + O=[N+]([O-])c1cn2c(n1)OC[C@@H](OCc1ccc(OC(F)(F)F)cc1)C2 [pretomanid]	-1.06
COc1nc2ccc(Br)cc2cc1[C@@H](c1ccccc1)[C@@](O)(CCN(C)C)c1cccc2ccccc12 [bedaquiline] + CC[C@@H](CO)NCCN[C@@H](CC)CO [ethambutol] + CO[C@H]1/C=C/O[C@@]2(C)Oc3c(C)c(O)c4c(O)c(c(/C=N/N5CCN(C)CC5)c(O)c4c3C2=O)NC(=O)/C(C)=C\C=C\[C@H](C)[C@H](O)[C@@H](C)[C@@H](O)[C@@H](C)[C@H](OC(C)=O)[C@@H]1C [rifampicin]	0.757

// returns reported total FIC50 for input COc1nc2ccc(Br)cc2cc1[C@@H](c1ccccc1)[C@@](O)(CCN(C)C)c1cccc2ccccc12 [bedaquiline] + CC[C@@H](CO)NCCN[C@@H](CC)CO [ethambutol] + COc1c(N2C[C@@H]3CCCN[C@@H]3C2)c(F)cc2c(=O)c(C(=O)O)cn(C3CC3)c12 [moxifloxacin]
1.36
